Target: bovine serum albumin (Bos taurus)
Construct: from tissue; host or cells: plasma / serum (from the name; preparation not described)
Sequence (P02769 25-607): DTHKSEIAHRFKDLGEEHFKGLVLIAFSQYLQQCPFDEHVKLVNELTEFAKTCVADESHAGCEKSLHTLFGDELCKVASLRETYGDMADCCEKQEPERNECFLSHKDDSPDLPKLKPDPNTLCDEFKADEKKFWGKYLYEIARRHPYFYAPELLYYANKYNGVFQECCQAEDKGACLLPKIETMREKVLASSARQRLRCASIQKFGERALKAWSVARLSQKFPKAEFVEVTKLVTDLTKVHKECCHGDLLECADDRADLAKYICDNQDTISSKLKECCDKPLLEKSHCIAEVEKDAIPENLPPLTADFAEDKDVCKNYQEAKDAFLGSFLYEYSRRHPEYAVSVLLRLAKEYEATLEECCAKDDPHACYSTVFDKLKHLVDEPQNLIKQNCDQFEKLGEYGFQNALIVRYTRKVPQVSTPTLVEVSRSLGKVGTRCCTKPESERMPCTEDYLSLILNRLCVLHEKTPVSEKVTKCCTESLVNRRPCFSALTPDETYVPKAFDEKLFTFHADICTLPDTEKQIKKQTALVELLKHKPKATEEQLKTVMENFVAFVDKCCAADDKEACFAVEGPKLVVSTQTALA
Test: Compound binding to plasma albumin (ultrafiltration, free compound), BSA
Format: in vitro ADME
Conditions: compound 20 μg/ml; BSA 40 mg/ml; read-out: Computed (1:1) Kd
Quantity kind: Kd

• Cc1ncc(CO)c(-c2ncc[nH]2)c1O = 320 µM
